Observed pIC50, system UniProt Q96SW2.
Remember, pIC50 is on a log scale: it is -log10 of the molar concentration.

Here are 5 molecules together with their reported answers.
* CC1(C)CCC(C(=O)N2C3CCC2CN(Cc2ccc4c(c2)CN(C2CCC(=O)NC2=O)C4=O)C3)=C(c2ccc(F)cc2)C1 (stereo not drawn) | 6.22
* CC1(C)CCC(CN2CC3CCC2CN3Cc2ccc3c(c2)CN(C2CCC(=O)NC2=O)C3=O)=C(c2ccc(Cl)cc2)C1 (stereo not drawn) | 6.18
* CC1(C)CCC(C(=O)N2CC3CC(C2)N3Cc2ccc3c(c2)CN(C2CCC(=O)NC2=O)C3=O)=C(c2ccc(Cl)cc2)C1 (stereo not drawn) | 6.21
* CC1(C)CCC(CN2CC3CCC2CN3Cc2cccc3c2CN(C2CCC(=O)NC2=O)C3=O)=C(c2ccc(Cl)cc2)C1 (stereo not drawn) | 5.80
* CC1(C)CCC(CN2CC3CC(C2)N3Cc2ccc3c(c2)C(=O)N(C2CCC(=O)NC2=O)C3=O)=C(c2ccc(Cl)cc2)C1 (stereo not drawn) | 5.74

Input line: Provide one value: measured pIC50 of O=C1CCC(N2Cc3cc(CN4CCN(Cc5ccccc5-c5cncs5)CC4)ccc3C2=O)C(=O)N1 (stereo not drawn)
Output line: 6.27

Input line: Specify measured pIC50 for CC1(C)CCC(C(=O)N2CC3CCC(C2)N3C(=O)c2ccc3c(c2)CN(C2CCC(=O)NC2=O)C3=O)=C(c2ccc(Cl)cc2)C1 (stereo not drawn) .
Output line: 5.89

Input line: Dear colleague, please send me the reported pIC50 for CC1(C)CCC(C(=O)N2CC3CCC(C2)N3c2ccc3c(c2)CN(C2CCC(=O)NC2=O)C3=O)=C(c2ccc(F)cc2)C1 (stereo not drawn) when you can.
Output line: 6.08

Input line: Return the recorded pIC50 value; entry: O=C1CCC(N2Cc3cc(-c4ccc(CN5CCN(C(=O)c6ccccc6-c6ccc(Cl)cc6)CC5)cc4)ccc3C2=O)C(=O)N1 (stereo not drawn)
Output line: 6.36

###

// endpoint IC50 / system human Cereblon WT GST-tagged protein (Homo sapiens (Human), UniProt Q96SW2)
State the answer as a number, implicitly in nM.

- CC1(C)CCC(CN2C3CC2CN(Cc2ccc4c(c2)CN(C2CCC(=O)NC2=O)C4=O)C3)=C(c2ccc(Cl)cc2)C1 (stereo not shown): 630
- CC1(C)CCC(CN2C3CC2CN(Cc2cc4c(cc2F)C(=O)N(C2CCC(=O)NC2=O)C4)C3)=C(c2ccc(Cl)cc2)C1 (stereo not shown): 1200
- CC1(C)CCC(CN2CC(O)(C(O)c3ccc4c(c3)CN(C3CCC(=O)NC3=O)C4=O)C2)=C(c2ccc(Cl)cc2)C1 (stereo not shown): 950

Here is another compound to look at.
Input line: Using the record for O=C1CCC(N2Cc3cc(CN4CCN(Cc5cccc(-c6cccs6)c5)CC4)ccc3C2=O)C(=O)N1 (stereo not shown) , state its measured IC50.
Output line: 1400

###

System: Daudi cells
Assay: Tumor cell proliferation IC50 (CCK-8), Daudi;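 note: cell viability read with CCK-8 reagent after compound exposure of Daudi cells, IC50 derived from plotted growth inhibition curves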
Settings: Homo sapiens, read-out: IC50 for inhibiting the proliferation of tumor cells, Daudi
pIC50: −log10 of the molar value.
measured endpoint: pIC50

Known results for molecules:
- O=C1CCC(N2Cc3cc(CN4CCN(Cc5ccc(-c6ccncc6)nc5)CC4)ccc3C2=O)C(=O)N1 (centres unmarked) [GT-05633]: 6.30 to 7.00
- O=C1CCC(N2Cc3cc(CN4CCN(Cc5ccc(-c6ccc(Cl)cc6)nc5)CC4)ccc3C2=O)C(=O)N1 (centres unmarked) [GT-05632]: 7.30 to 8.00
- O=C1CCC(N2Cc3cc(CN4CCN(Cc5ccccc5-c5ccco5)CC4)ccc3C2=O)C(=O)N1 (centres unmarked) [GT-05779]: 7.00 to 7.30
- Cn1cccc1-c1ccccc1CN1CCN(Cc2ccc3c(c2)CN(C2CCC(=O)NC2=O)C3=O)CC1 (centres unmarked) [GT-05683]: 7.00 to 7.30
- CC1(C)CCC(CN2CCN(Cc3ccc4c(c3)CN(C3CCC(=O)NC3=O)C4=O)CC2)=C(c2cncs2)C1 (centres unmarked) [GT-05791]: 6.00 to 6.30

Input line: State recorded pIC50 with Daudi cells, entry O=C1CCC(N2Cc3c(ccc(CN4CCN(CC5=C(c6ccc(F)cc6)CCCC5)CC4)c3F)C2=O)C(=O)N1 (centres unmarked) [GT-05466] , no comment.
Output line: 7.00 to 7.30

Input line: Look up Daudi cells data: pIC50 of O=C1CCC(N2Cc3cc(CN4CCN(C(=O)c5ccccc5-c5ccc(Cl)cc5)CC4)c(F)cc3C2=O)C(=O)N1 (centres unmarked) [GT-05650] , then report it.
Output line: 6.30 to 7.00

###

Test system: SW620 cells
Assay: Tumor cell proliferation IC50 (CCK-8), SW620
Conditions: Homo sapiens, SW-620, 96 h, read-out: IC50 for inhibiting the proliferation of tumor cells, SW620
Entries and their IC50 values follow.

Solved cases (3 shown):
* CC1(C)CCC(CN2CCN(Cc3ccc4c(c3F)CN(C3CCC(=O)NC3=O)C4=O)CC2)=C(c2ccc(Cl)cc2)C1 (stereo not drawn) [GT-03468] | 10 to 50 nM
* Nc1cccc2c1C(=O)N(C1CCC(=O)NC1=O)C2=O (stereo not drawn) [pomalidomide, reference compound] | > 10000 nM
* O=C1CCC(N2Cc3cc(CN4CCN(Cc5ccccc5-c5ccc(Cl)cc5)CC4)ccc3C2=O)C(=O)N1 (stereo not drawn) [GT-03355] | 5 to 10 nM

Input line: GET IC50 | system: SW620 cells | item: CC1(C)CCC(CN2CCN(Cc3ccc4c(c3)CN(C3CCC(=O)NC3=O)C4=O)CC2)=C(c2ccc(Cl)cc2)C1 (stereo not drawn) [GT-02785]
Output line: 50 to 100 nM

Input line: Provide IC50, tested on SW620 cells, for O=C1CCC(N2Cc3cc(CN4CCN(Cc5ccccc5-c5ccc(Cl)cc5)CC4)c(F)cc3C2=O)C(=O)N1 (stereo not drawn) [GT-03695] .
Output line: 5 to 10 nM

Input line: Provide measured IC50 on SW620 cells for O=C1CCC(N2Cc3c(ccc(CN4CCN(Cc5ccccc5-c5ccc(Cl)cc5)CC4)c3F)C2=O)C(=O)N1 (stereo not drawn) [GT-03694] please.
Output line: < 5 nM

###

Entries below carry reported IC50 on human Cereblon WT GST-tagged protein (Homo sapiens (Human)).
Sequence (Q96SW2 whole entry): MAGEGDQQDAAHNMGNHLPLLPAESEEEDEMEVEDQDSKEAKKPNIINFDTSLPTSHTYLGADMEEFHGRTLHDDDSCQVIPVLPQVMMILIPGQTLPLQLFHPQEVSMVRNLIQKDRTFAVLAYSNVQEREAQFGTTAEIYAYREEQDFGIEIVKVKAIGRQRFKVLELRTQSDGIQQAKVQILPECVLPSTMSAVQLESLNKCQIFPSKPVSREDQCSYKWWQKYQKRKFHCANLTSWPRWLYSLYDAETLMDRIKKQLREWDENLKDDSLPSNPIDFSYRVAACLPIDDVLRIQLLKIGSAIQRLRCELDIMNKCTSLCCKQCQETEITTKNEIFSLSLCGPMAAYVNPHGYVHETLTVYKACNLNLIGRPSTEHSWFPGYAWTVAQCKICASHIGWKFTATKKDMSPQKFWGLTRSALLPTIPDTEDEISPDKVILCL
Numbers only; they are read as nM.

• O=C1CCC(N2Cc3cc(CN4C5CC4CN(C(=O)c4ccccc4-c4ccc(Cl)cc4)C5)ccc3C2=O)C(=O)N1 (stereo not shown) = 600
• Cc1ccc(C2=C(CN3CCN(Cc4ccc5c(c4)CN(C4CCC(=O)NC4=O)C5=O)CC3)CCC(C)(C)C2)cc1 (stereo not shown) = 660
• O=C1CCC(N2Cc3cccc(CN4C5CC4CN(C(=O)C4=C(c6ccc(F)cc6)CCCC4)C5)c3C2=O)C(=O)N1 (stereo not shown) = 1740
• CC1(C)CCC(CN2CC3CCC(C2)N3C(=O)c2ccc3c(c2)CN(C2CCC(=O)NC2=O)C3=O)=C(c2ccc(Cl)cc2)C1 (stereo not shown) = 1410
• CC1(C)CCC(CN2CC3CC(C2)N3Cc2ccc3c(c2)CN(C2CCC(=O)NC2=O)C3=O)=C(c2ccc(F)cc2)C1 (stereo not shown) = 430

Input line: Look up human Cereblon WT GST-tagged protein (Homo sapiens (Human)) data: IC50 of CC1(C)CCC(CN2CC3CCC(C2)N3c2ccc3c(c2)CN(C2CCC(=O)NC2=O)C3=O)=C(c2ccc(F)cc2)C1 (stereo not shown) , then report it.
Output line: 1520

Input line: Look up and report measured IC50 (human Cereblon WT GST-tagged protein (Homo sapiens (Human))) for the following molecule: O=C1CCC(N2Cc3cc(CN4C5CC4CN(C(=O)C4=C(c6ccc(F)cc6)CCCC4)C5)ccc3C2=O)C(=O)N1 (stereo not shown)
Output line: 850

Input line: Check human Cereblon WT GST-tagged protein (Homo sapiens (Human)) data and give IC50 for O=C1CCC(N2Cc3cc(CN4CCN(Cc5ccc(-c6ccc(Cl)cc6)cc5)CC4)ccc3C2=O)C(=O)N1 (stereo not shown) .
Output line: 680

Input line: Report value only: IC50, human Cereblon WT GST-tagged protein (Homo sapiens (Human)), O=C1CCC(N2C(=O)c3ccc(CN4CCN(Cc5ccncc5-c5ccc(Cl)cc5)CC4)cc3C2=O)C(=O)N1 (stereo not shown)
Output line: 1650

Input line: Please indicate recorded IC50 of CC1(C)CCC(CN2CCN(Cc3ccc4c(c3)C(=O)N(C3CCC(=O)NC3=O)C4)CC2)=C(c2ccc(F)cc2)C1 (stereo not shown) measured with human Cereblon WT GST-tagged protein (Homo sapiens (Human)).
Output line: 490

Input line: State IC50 on human Cereblon WT GST-tagged protein (Homo sapiens (Human)). Entry: CC1(C)CCC(C(=O)N2C3CC2CN(C(=O)c2ccc4c(c2)CN(C2CCC(=O)NC2=O)C4=O)C3)=C(c2ccc(Cl)cc2)C1 (stereo not shown)
Output line: 960

Input line: System human Cereblon WT GST-tagged protein (Homo sapiens (Human)). Read-out IC50. Item O=C1CCC(N2Cc3cc(CN4CCN(C(=O)C5=C(c6ccc(F)cc6)CCCC5)CC4)c(F)cc3C2=O)C(=O)N1 (stereo not shown) . Report value.
Output line: 1160

Input line: Jot down IC50 (human Cereblon WT GST-tagged protein (Homo sapiens (Human))) of CC1(C)CCC(CN2CC3CC(C2)N3C(=O)c2ccc3c(c2)CN(C2CCC(=O)NC2=O)C3=O)=C(c2ccc(Cl)cc2)C1 (stereo not shown) .
Output line: 940

Input line: Please look at O=C1CCC(N2Cc3cc(CN4CCN(Cc5ccccc5-c5ccc(Cl)cc5)CC4C(F)(F)F)ccc3C2=O)C(=O)N1 (stereo not shown) and tell me its recorded IC50 on human Cereblon WT GST-tagged protein (Homo sapiens (Human)).
Output line: 490

Input line: # lookup: human Cereblon WT GST-tagged protein (Homo sapiens (Human)) IC50, key = CC1(C)CCC(CN2CCN(Cc3cc4c(cc3F)C(=O)N(C3CCC(=O)NC3=O)C4)CC2)=C(c2ccc(F)cc2)C1 (stereo not shown)
Output line: 570

Input line: System human Cereblon WT GST-tagged protein (Homo sapiens (Human)). Read-out IC50. Item O=C1CCC(N2Cc3cc(CN4CCN(Cc5cccc(-c6ccc[nH]6)c5)CC4)ccc3C2=O)C(=O)N1 (stereo not shown) . Report value.
Output line: 210

Input line: Return reported IC50 for target or system human Cereblon WT GST-tagged protein (Homo sapiens (Human)), item CC1(C)CCC(CN2C3CCC2CN(c2ccc4c(c2)CN(C2CCC(=O)NC2=O)C4=O)C3)=C(c2ccc(F)cc2)C1 (stereo not shown) .
Output line: 1870

Input line: Fetch value of IC50 on human Cereblon WT GST-tagged protein (Homo sapiens (Human)) for CC1(C)CCC(CN2CC3CC(C2)N3Cc2ccc3c(c2F)CN(C2CCC(=O)NC2=O)C3=O)=C(c2ccc(Cl)cc2)C1 (stereo not shown) .
Output line: 750

Input line: Give measured IC50 for CC1(C)CCC(CN2C3CCC2CN(Cc2ccc4c(c2F)CN(C2CCC(=O)NC2=O)C4=O)C3)=C(c2ccc(Cl)cc2)C1 (stereo not shown) (human Cereblon WT GST-tagged protein (Homo sapiens (Human))).
Output line: 1170

Input line: Fetch value of IC50 on human Cereblon WT GST-tagged protein (Homo sapiens (Human)) for O=C1CCC(N2Cc3cc(CN4CCC(Nc5ccccc5-c5ccc(Cl)cc5)CC4)ccc3C2=O)C(=O)N1 (stereo not shown) .
Output line: 470
